Overview of reported combination Emax across a group of molecules:
- Test system: LNZTA3WT4 (Low Grade Glioma)
- assay-comment: combination Emax (second highest fraction inhibited in the dose matrix, 72 h); higher = more inhibition; extreme values may be limits of the assay

molecule	experimental-result
Cc1cc2ncnn2cc1Nc1ncc2c(n1)n(C1CCOCC1)c(=O)n2C [AZD7648] + CN(C)CCCOc1ccc(-c2ccc3ncc4c(c3c2)n(C2CCOCC2)c(=O)n4C)cn1 [AZD0156] (first compound max 10 µM, 7x7, partner max 1 µM)	0.276

[in] I'd like to know its combination Emax. The molecule in question is O=C(c1cc(Cc2n[nH]c(=O)c3ccccc23)ccc1F)N1CCN(C(=O)C2CC2)CC1 [Olaparib] + COc1nnc2ccc(N3CCC(c4ccc(OCCN5CCN(C)C(=O)[C@H]5C)cc4)CC3)nn12 [AZD5153] (first compound max 10 µM, 7x7, partner max 1 µM)
[out] 0.357

[in] Same again, this time with CN(CCO)CC[C@H](CSc1ccccc1)Nc1ccc(S(=O)(=O)NC(=O)c2ccc(N3CCC([C@@H](O)c4ccccc4-c4ccc(Cl)cc4)CC3)cc2)cc1S(=O)(=O)C(F)(F)F [AZD4320] + C=CCn1c(=O)c2cnc(Nc3ccc(N4CCN(C)CC4)cc3)nc2n1-c1cccc(C(C)(C)O)n1 [AZD1775] (first compound max 1 µM, partner max 1 µM)
[out] 0.889

---

- Test system: SNU-449 (Hepatocellular Carcinoma)
- assay-comment: combination Emax (second highest fraction inhibited in the dose matrix, 72 h); higher = more inhibition; extreme values may be limits of the assay
Returns one of label 1 or label 0; label 1 when combination Emax is >= 0.2.

[in] Given CC1(C)CCC(CN2CCN(c3ccc(C(=O)NS(=O)(=O)c4ccc(NCC5CCOCC5)c([N+](=O)[O-])c4)c(Oc4cnc5[nH]ccc5c4)c3)CC2)=C(c2ccc(Cl)cc2)C1 [Venetoclax] + C=CCn1c(=O)c2cnc(Nc3ccc(N4CCN(C)CC4)cc3)nc2n1-c1cccc(C(C)(C)O)n1 [AZD1775] (first compound max 1 µM, partner max 1 µM) , state whether its combination Emax is at least 0.2.
[out] label 1

---

- Tested on: HuCCT1 (Biliary Tract Carcinoma)
- assay-comment: combination Emax (second highest fraction inhibited in the dose matrix, 72 h); higher = more inhibition; extreme values may be limits of the assay
Overview of reported combination Emax across a group of compounds:
Quick one: just the number, no unit, thanks!

compound	experimental-result
C=CCn1c(=O)c2cnc(Nc3ccc(N4CCN(C)CC4)cc3)nc2n1-c1cccc(C(C)(C)O)n1 [AZD1775] + CCc1c2c(nc3ccc(O)cc13)-c1cc3c(c(=O)n1C2)COC(=O)[C@]3(O)CC [SN-38] (first compound max 1 µM, partner max 0.3 µM)	0.809
COc1cc2ncnc(Nc3ccc(F)c(Cl)c3)c2cc1OCCCN1CCOCC1 [Gefitinib] + CC(C)n1c(=O)n(C)c2cnc3cc(F)c(-c4ccc(OCCCN5CCCCC5)nc4)cc3c21 [AZD1390] (first compound max 10 µM, 7x7, partner max 0.3 µM)	0.389
COc1cccc(OCCCN)c1-c1cc(Nc2cnc(C#N)cn2)n[nH]1 [Prexasertib] + O=C(c1cc(Cc2n[nH]c(=O)c3ccccc23)ccc1F)N1CCN(C(=O)C2CC2)CC1 [Olaparib] (first compound max 1 µM, 7x7, partner max 10 µM)	0.844

[in] I'd like to know its combination Emax. The compound in question is O=C(c1cc(Cc2n[nH]c(=O)c3ccccc23)ccc1F)N1CCN(C(=O)C2CC2)CC1 [Olaparib] + COc1nnc2ccc(N3CCC(c4ccc(OCCN5CCN(C)C(=O)[C@H]5C)cc4)CC3)nn12 [AZD5153] (first compound max 10 µM, 7x7, partner max 1 µM)
[out] 0.456

---

- Tested on: L-428 (Hodgkin's Lymphoma)
- assay-comment: combination Emax (second highest fraction inhibited in the dose matrix, 72 h); higher = more inhibition; extreme values may be limits of the assay
measure: combination Emax
Quick one: just the number, no unit, thanks!

molecule	combination Emax
CC1(C)CCC(CN2CCN(c3ccc(C(=O)NS(=O)(=O)c4ccc(NCC5CCOCC5)c([N+](=O)[O-])c4)c(Oc4cnc5[nH]ccc5c4)c3)CC2)=C(c2ccc(Cl)cc2)C1 [Venetoclax] + CCN(CCO)CCCOc1ccc2c(Nc3cc(CC(=O)Nc4cccc(F)c4)[nH]n3)ncnc2c1 [AZD2811] (first compound max 1 µM, 7x7, partner max 1 µM)	0.296
COc1nnc2ccc(N3CCC(c4ccc(OCCN5CCN(C)C(=O)[C@H]5C)cc4)CC3)nn12 [AZD5153] + CC1(C)CCC(CN2CCN(c3ccc(C(=O)NS(=O)(=O)c4ccc(NCC5CCOCC5)c([N+](=O)[O-])c4)c(Oc4cnc5[nH]ccc5c4)c3)CC2)=C(c2ccc(Cl)cc2)C1 [Venetoclax] (first compound max 1 µM, 7x7, partner max 1 µM)	0.8
Cc1c2c(nn1C)CSCc1cc(n(C)n1)CSc1cc(c3ccccc3c1)OCCCc1c(C(=O)O)n(C)c3c-2c(Cl)ccc13 [AZD5991] + Cn1cnc2c(F)c(Nc3ccc(Br)cc3Cl)c(C(=O)NOCCO)cc21 [Selumetinib] (first compound max 1 µM, 7x7, partner max 3 µM)	0.0936

[in] I'd like to know its combination Emax. The molecule in question is NC1(C(=O)N[C@@H](CCO)c2ccc(Cl)cc2)CCN(c2ncnc3[nH]ccc23)CC1 [Capivasertib] + CCN(CCO)CCCOc1ccc2c(Nc3cc(CC(=O)Nc4cccc(F)c4)[nH]n3)ncnc2c1 [AZD2811] (first compound max 10 µM, 7x7, partner max 1 µM)
[out] 0.302

[in] Same again, this time with CS(=O)(=O)CCNCc1ccc(-c2ccc3ncnc(Nc4ccc(OCc5cccc(F)c5)c(Cl)c4)c3c2)o1 [Lapatinib] + C[C@@H](Oc1cc(-c2cnn(C3CCNCC3)c2)cnc1N)c1c(Cl)ccc(F)c1Cl [Crizotinib] (first compound max 10 µM, 7x7, partner max 10 µM)
[out] 0.913

[in] Same again, this time with CC1(C)CCC(CN2CCN(c3ccc(C(=O)NS(=O)(=O)c4ccc(NCC5CCOCC5)c([N+](=O)[O-])c4)c(Oc4cnc5[nH]ccc5c4)c3)CC2)=C(c2ccc(Cl)cc2)C1 [Venetoclax] + CN(C)CCCOc1ccc(-c2ccc3ncc4c(c3c2)n(C2CCOCC2)c(=O)n4C)cn1 [AZD0156] (first compound max 1 µM, 7x7, partner max 1 µM)
[out] 0.176

---

- System: NCI-H524 (Small Cell Lung Carcinoma)
- assay-comment: Bliss excess, mean over the matrix (fraction); higher = more synergy
Returns one of 1 (yes) or 0 (no); 1 (yes) when Bliss excess is >= -0.01.

compound	classification
COc1nnc2ccc(N3CCC(c4ccc(OCCN5CCN(C)C(=O)[C@H]5C)cc4)CC3)nn12 [AZD5153] + Cn1cnc2c(F)c(Nc3ccc(Br)cc3Cl)c(C(=O)NOCCO)cc21 [Selumetinib] (first compound max 1 µM, 7x7, partner max 10 µM)	0 (no)
CN(C)CCCOc1ccc(-c2ccc3ncc4c(c3c2)n(C2CCOCC2)c(=O)n4C)cn1 [AZD0156] + C=CCn1c(=O)c2cnc(Nc3ccc(N4CCN(C)CC4)cc3)nc2n1-c1cccc(C(C)(C)O)n1 [AZD1775] (first compound max 1 µM, partner max 1 µM)	0 (no)
COc1cccc(OCCCN)c1-c1cc(Nc2cnc(C#N)cn2)n[nH]1 [Prexasertib] + O=C(c1cc(Cc2n[nH]c(=O)c3ccccc23)ccc1F)N1CCN(C(=O)C2CC2)CC1 [Olaparib] (first compound max 1 µM, 7x7, partner max 10 µM)	0 (no)

Now take the following compound into account.
[in] Given Cc1c2c(nn1C)CSCc1cc(n(C)n1)CSc1cc(c3ccccc3c1)OCCCc1c(C(=O)O)n(C)c3c-2c(Cl)ccc13 [AZD5991] + CCN(CCO)CCCOc1ccc2c(Nc3cc(CC(=O)Nc4cccc(F)c4)[nH]n3)ncnc2c1 [AZD2811] (first compound max 1 µM, 7x7, partner max 1 µM) , state whether its Bliss excess is at least -0.01.
[out] 1 (yes)

---

- Tested on: MHH-CALL-2 (B-Lymphoblastic Leukemia)
- assay-comment: Bliss excess, mean over the matrix (fraction); higher = more synergy
Overview of reported Bliss excess across a group of compounds:
Quick one: just the number, no unit, thanks!

These solved cases illustrate the format of a correct answer.
compound	Bliss excess
CC1(C)CCC(CN2CCN(c3ccc(C(=O)NS(=O)(=O)c4ccc(NCC5CCOCC5)c([N+](=O)[O-])c4)c(Oc4cnc5[nH]ccc5c4)c3)CC2)=C(c2ccc(Cl)cc2)C1 [Venetoclax] + CCN(CCO)CCCOc1ccc2c(Nc3cc(CC(=O)Nc4cccc(F)c4)[nH]n3)ncnc2c1 [AZD2811] (first compound max 1 µM, 7x7, partner max 1 µM)	-0.01
NC1(C(=O)N[C@@H](CCO)c2ccc(Cl)cc2)CCN(c2ncnc3[nH]ccc23)CC1 [Capivasertib] + COc1nnc2ccc(N3CCC(c4ccc(OCCN5CCN(C)C(=O)[C@H]5C)cc4)CC3)nn12 [AZD5153] (first compound max 10 µM, 7x7, partner max 1 µM)	-0.03

[in] I'd like to know its Bliss excess. The compound in question is CC(=O)c1c(C)c2cnc(Nc3ccc(N4CCNCC4)cn3)nc2n(C2CCCC2)c1=O [Palbociclib] + Cn1cnc2c(F)c(Nc3ccc(Br)cc3Cl)c(C(=O)NOCCO)cc21 [Selumetinib] (first compound max 10 µM, 7x7, partner max 10 µM)
[out] -0.0407
